Tested on: MALME-3M melanoma
assay method text: NCI tumour cell line growth inhibition, 48 h
Listing of entries alongside the reported TGI.
Expressed in µM, but write only the number.

O=C(c1ccc(Cl)cc1Cl)N(Cc1cccnc1)C(=S)N(Cc1cccnc1)C(=O)c1ccc(Cl)cc1Cl; 36.9

I would be grateful if you could share the reported TGI for OC1c2ccccc2[C@@H]2[C@H]1[C@@H](c1ccccc1)C1(Cc3ccccc3C1O)[C@H]2c1ccccc1 (stereo not given in full) .
17.9

I would be grateful if you could share the reported TGI for `Cc1cc(C)c(S(=O)(=O)N[C@@H](/C=C(\Br)CO)C(C)C)c(C)c1` .
61.6

I would be grateful if you could share the reported TGI for `O=[N+]([O-])c1ccc(N/N=C\c2cc(Cl)ccc2O)nc1` .
20.5

###

Test system: SK-OV-3 ovarian
assay method text: NCI tumour cell line growth inhibition, 48 h
Listing of entries alongside the reported TGI.

Examples from the recorded data:
C[C@@H](c1ccc2nccn2c1)n1nnc2ncc(-c3cnn(C)c3)nc21; > 100 µM
COc1ccc(/C=C2\CN(C(=O)CCN3CCC(=NO)CC3)C/C(=C\c3ccc(OC)cc3)C2=O)cc1; 7 µM
COC1C=C(Nc2cccc(Cl)c2)C(=O)C1 (stereo not drawn); > 100 µM
COc1ncnc2c1cnn2Cc1cn(COCC(O)CO)nn1 (stereo not drawn); > 100 µM
O=C(O)C(CS)NCc1c2ccccc2[n+]([O-])c2ccccc12 (stereo not drawn); > 100 µM

Proceeding to the next molecule to report its TGI.
I would be grateful if you could share the reported TGI for N#Cc1cccc(C2ON=C(c3ccc([N+](=O)[O-])cc3)N2C23CC4CC(CC(C4)C2)C3)c1 (stereo not drawn) .
> 100 µM

###

Test system: HOP-62 NSCLC
assay method text: NCI tumour cell line growth inhibition, 48 h
Listing of entries alongside the reported TGI.

CNC(=O)OCc1nc(SC(C)C)n(C)c1COC(=O)NC; > 100 µM
Cc1ccc(/C=C2\N=C(N3CCCCC3)NC2=O)cc1; > 100 µM
COc1c(OC(C)=O)ccc(/C=C2\N=C(C)OC2=O)c1[N+](=O)[O-]; > 100 µM
CCOc1cc(/C=N\N(C)C)cc(/C=N\N(C)C)c1O; > 100 µM
Cc1cc2c(C)c3cc(C)c(N)cc3nc2cc1N; 7.08 µM

I would be grateful if you could share the reported TGI for CC(Cl)(/C=C/Cl)C(Cl)/C=C/C(Cl)(CCl)CBr (configuration not stated) .
42.8 µM

I would be grateful if you could share the reported TGI for `CCOC(=O)c1cccc(NC(=O)CBr)c1` .
3.41 µM

I would be grateful if you could share the reported TGI for `Cc1cc2nc(N3C(=O)/C(=C/c4cccc([N+](=O)[O-])c4)N=C3c3ccccc3)sc2cc1C` .
> 100 µM

I would be grateful if you could share the reported TGI for Nc1nc(Cl)c(C=O)c(NCC2(CO)CC(CCc3ccccc3)C2)n1 (configuration not stated) .
28.6 µM

I would be grateful if you could share the reported TGI for `N#Cc1ncn(-c2ccccc2)c1N` .
> 100 µM

I would be grateful if you could share the reported TGI for `S=C(NNC1=NCCCN1)Nc1ccccc1` .
> 100 µM

I would be grateful if you could share the reported TGI for O=C(O)C(CS)NCc1c2ccccc2[n+]([O-])c2ccccc12 (configuration not stated) .
> 100 µM

###

Test system: MDA-MB-231 breast
assay method text: NCI tumour cell line growth inhibition, 48 h
parameter: TGI (µM)
Expressed in µM, but write only the number.

Examples from the recorded data:
CN(C)CCOc1ccc(I)cc1Cc1ccccc1; 12.3
CCC1(OC(=O)CN2CCN(CCO)CC2)C(=O)OCc2c1cc1n(c2=O)Cc2cc3ccccc3nc2-1 (configuration not stated); 65.7
O=C(c1cccs1)c1c(C(F)(F)F)n([O-])c2ccc(C(F)(F)F)cc2[n+]1=O; 0.357
CCOC(=O)c1cccc(NC(=O)CBr)c1; 3.51
CC(=O)Oc1ccc(N2C(=O)C3c4[nH]c5ccccc5c4C4CCC(C(C)(C)C)CC4C3C2=O)cc1 (configuration not stated); 4.63

Proceeding to the next compound to report its TGI.
What value of TGI on MDA-MB-231 breast does CC(=O)OCCC1c2ccccc2-n2nc(-c3ccccc3)c(O)c21 (configuration not stated) have?
43.3

###

Tested on: SK-MEL-5 melanoma
assay method text: NCI tumour cell line growth inhibition, 48 h
Listing of entries alongside the reported TGI.

What value of TGI on SK-MEL-5 melanoma does `Cc1ccc(S(=O)(=O)N/N=C/C(Br)=C(/Br)C(=O)O)cc1` have?
25.8 µM

What value of TGI on SK-MEL-5 melanoma does `COc1ccc(NC(=O)CC(=O)n2nc(C)c(N=Nc3ccc(C)c(C)c3)c2C)cc1` have?
> 100 µM

What value of TGI on SK-MEL-5 melanoma does `C/C(=N\N(C)C)c1sc(-n2nc(-c3ccccc3)cc2-c2ccccc2)nc1C` have?
> 100 µM

What value of TGI on SK-MEL-5 melanoma does `COc1ccc(N(C)c2nc(C)nc3ccccc23)cc1` have?
< 0.01 µM

What value of TGI on SK-MEL-5 melanoma does COC(=O)C1Cc2ccc(C)cc2C1=O (stereo unspecified) have?
> 100 µM

What value of TGI on SK-MEL-5 melanoma does `CCOC(=O)c1cnc(SCc2ccc(Cl)c(Cl)c2)nc1N1CC1` have?
12.6 µM

What value of TGI on SK-MEL-5 melanoma does CC(=O)N1c2ccccc2C(C)(C)OC1C(Cl)(Cl)Cl (stereo unspecified) have?
53.4 µM

###

Tested on: HCT-116 colon
assay method text: NCI tumour cell line growth inhibition, 48 h
Listing of entries alongside the reported GI50.

I would be grateful if you could share the reported GI50 for `COc1ccc(/C=C2\CN(C(=O)CCN3CCC(=NO)CC3)C/C(=C\c3ccc(OC)cc3)C2=O)cc1` .
1.74 µM

I would be grateful if you could share the reported GI50 for `COc1cccc(NC(=O)c2sc3nc4c(cc3c2N)CCCC4)c1` .
0.475 µM

I would be grateful if you could share the reported GI50 for `COc1ccc(-c2cc(-c3ccc(Nc4nc(Nc5ccc(Cl)cc5)nc(Nc5ccc(Cl)cc5)n4)cc3)nc(N)c2C#N)cc1` .
1.65 µM

I would be grateful if you could share the reported GI50 for CC12OC(C(=O)C13CC3)C1C(=O)c3ccccc3C(=O)C12 (centres undefined) .
34 µM

###

Tested on: T-47D breast
assay method text: NCI tumour cell line growth inhibition, 48 h; in the data active means GI50 below about 0.43 µM; inactive means the rest
Hi there, use one of these labels in your reply, thanks! 1 (active), -1 (inactive)

Worked cases, answers included:
O=C1c2cc3c(cc2-c2c1c1cc(Cl)c(Cl)cc1c(=O)n2CCCn1ccnc1)OCO3; 1
C[C@H]1[C@H](OC(=O)CCC(=O)O)O[C@@H]2O[C@]3(C)CC[C@H]4[C@H](C)CC[C@@H]1[C@@]24OO3; 1
O=C(c1ccccc1)c1nn(-c2ccc(Cl)cc2)c2nc3nc(-c4ccccc4)cc(=O)n3nc12; -1
COC(=O)c1cnc(=O)n(C2CC(O)C(CO)O2)c1 (stereo not drawn); -1
COC(=O)[C@]12CC[C@@H](C)[C@H](C)[C@@H]1C1=CC[C@@H]3[C@@]4(C)CC(=O)[C@H](O)[C@@]5(C)COC(=C45)C[C@@]3(C)[C@]1(C)CC2; -1

Give the logged outcome of this assay for the following molecule: `O=C1C=C[C@]2(C[C@@H](c3cccc(C(F)(F)F)c3)O[C@@H](c3cccc(C(F)(F)F)c3)O2)O1`
-1

Give the logged outcome of this assay for the following molecule: CCCCCCCCCCCCCCCCCCNC(=O)[C@H]1CSC(c2ccc(OC)c(F)c2)N1 (stereo partly drawn)
-1

Give the logged outcome of this assay for the following molecule: `O=[N+]([O-])c1ccc(N/N=C\c2cc(Cl)ccc2O)nc1`
-1

###

System: SK-MEL-2 melanoma
assay method text: NCI tumour cell line growth inhibition, 48 h
parameter: GI50

O/N=C1\CCc2cc(-c3nc(C4CCNCC4)[nH]c3-c3ccncc3)ccc21; 16 µM

What value of GI50 on SK-MEL-2 melanoma does Cc1cc(NC(=O)C2c3ccccc3C(=O)N(CC(C)C)C2c2cccs2)no1 (stereo not drawn) have?
> 100 µM

What value of GI50 on SK-MEL-2 melanoma does `O=C(Nc1n[nH]c2nc(-c3ccco3)c(Br)cc12)C1CC1` have?
> 25 µM

What value of GI50 on SK-MEL-2 melanoma does `O=C1C=C[C@]2(C[C@@H](c3cccc(C(F)(F)F)c3)O[C@@H](c3cccc(C(F)(F)F)c3)O2)O1` have?
2.21 µM

What value of GI50 on SK-MEL-2 melanoma does `C[C@H]1[C@H](OC(=O)CCC(=O)O)O[C@@H]2O[C@]3(C)CC[C@H]4[C@H](C)CC[C@@H]1[C@@]24OO3` have?
2.86 µM
